Each recorded value in this set is attributed to ChEMBL document CHEMBL4024762.

system name: Voltage-gated inwardly rectifying potassium channel KCNH2 (Homo sapiens)
Sequence (Q12809 whole entry): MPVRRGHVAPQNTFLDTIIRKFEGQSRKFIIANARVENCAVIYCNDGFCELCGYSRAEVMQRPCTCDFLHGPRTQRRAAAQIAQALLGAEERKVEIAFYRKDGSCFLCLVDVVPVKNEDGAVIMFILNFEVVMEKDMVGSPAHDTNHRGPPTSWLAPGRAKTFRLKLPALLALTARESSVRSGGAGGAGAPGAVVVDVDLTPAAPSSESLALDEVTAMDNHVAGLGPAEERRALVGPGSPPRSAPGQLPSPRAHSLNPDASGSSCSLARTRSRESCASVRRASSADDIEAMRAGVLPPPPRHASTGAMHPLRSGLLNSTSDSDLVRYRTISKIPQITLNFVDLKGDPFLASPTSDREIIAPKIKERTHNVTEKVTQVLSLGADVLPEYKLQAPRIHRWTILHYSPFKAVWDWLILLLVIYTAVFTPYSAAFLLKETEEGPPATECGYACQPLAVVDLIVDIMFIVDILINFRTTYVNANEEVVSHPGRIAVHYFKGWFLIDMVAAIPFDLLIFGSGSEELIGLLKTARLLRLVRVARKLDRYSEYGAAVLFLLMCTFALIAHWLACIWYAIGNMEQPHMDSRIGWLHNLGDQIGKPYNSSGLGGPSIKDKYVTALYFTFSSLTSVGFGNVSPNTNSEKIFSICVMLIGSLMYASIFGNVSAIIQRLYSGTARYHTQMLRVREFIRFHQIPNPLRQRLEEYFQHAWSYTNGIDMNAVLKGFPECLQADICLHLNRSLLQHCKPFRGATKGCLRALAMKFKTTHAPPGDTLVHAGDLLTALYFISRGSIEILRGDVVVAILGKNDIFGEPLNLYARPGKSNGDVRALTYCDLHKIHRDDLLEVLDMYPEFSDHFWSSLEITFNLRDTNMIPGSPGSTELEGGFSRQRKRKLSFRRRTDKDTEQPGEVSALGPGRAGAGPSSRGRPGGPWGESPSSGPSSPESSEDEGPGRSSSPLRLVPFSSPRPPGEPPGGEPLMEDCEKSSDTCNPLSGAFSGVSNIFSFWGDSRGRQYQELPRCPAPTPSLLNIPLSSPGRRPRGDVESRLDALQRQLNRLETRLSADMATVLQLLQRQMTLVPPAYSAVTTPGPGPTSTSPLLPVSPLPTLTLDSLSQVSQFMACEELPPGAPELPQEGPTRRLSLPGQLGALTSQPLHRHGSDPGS
experimental details: Inhibition of human ERG by manual patch clamp method
value kind: EC50

| structure smiles | system name | value kind | result |
| --- | --- | --- | --- |
| CC1(C)Cc2c(sc(NC(=O)c3ccn[nH]3)c2C(N)=O)C(C)(C)O1 | Voltage-gated inwardly rectifying potassium channel KCNH2 (Homo sapiens) | EC50 | > 33 µM |

---

experimental details: Oral bioavailability in rat at 5 mg/kg
Format: ADME, organism-based
condition label: in vivo

| structure smiles | bioavailability / % |
| --- | --- |
| CC1(C)Cc2c(sc(NC(=O)c3ccn[nH]3)c2C(N)=O)C(C)(C)O1 | 67 |

---

system name: Cystic fibrosis transmembrane conductance regulator (Homo sapiens, UniProt P13569, F508DEL)
experimental details: Potentiation of CFTR F508del mutant (unknown origin) expressed in human CFBE41o cells incubated for 10 mins in presence of forskolin measured for 7 secs by YFP halide assay
pEC50: −log10 of the molar value.
// rule not met strictly below 8 in pEC50; rule met otherwise

| molecule | classification |
| --- | --- |
| CC1(C)Cc2c(sc(NC(=O)C3(O)CC3)c2C(N)=O)C(C)(C)O1 | rule not met |
| CC(C)(C)CC(O)C(=O)Nc1sc2c(c1C(N)=O)CC(C)(C)OC2(C)C (stereo not given) | rule met |
| Cc1ccc(C(=O)Nc2sc3c(c2C(N)=O)CCOC3)s1 | rule not met |
| CC1(C)Cc2c(sc(NC(=O)c3cc(C(F)(F)F)[nH]n3)c2C(N)=O)C(C)(C)O1 | rule met |
| CC1(C)Cc2c(sc(NC(=O)C3CCNC3=O)c2C(N)=O)C(C)(C)O1 (stereo not given) | rule not met |
| CC1(C)Cc2c(sc(NC(=O)c3cn[nH]c3)c2C(N)=O)C(C)(C)O1 | rule not met |
| CC1(C)Cc2c(sc(NC(=O)c3cccnc3O)c2C(N)=O)C(C)(C)O1 | rule not met |
| Cc1ccc(C(=O)Nc2sc3c(c2C(N)=O)CCCC3)s1 | rule not met |

---

system name: Cytochrome P450 2D6 (Homo sapiens, UniProt P10635)
Sequence (P10635 whole entry): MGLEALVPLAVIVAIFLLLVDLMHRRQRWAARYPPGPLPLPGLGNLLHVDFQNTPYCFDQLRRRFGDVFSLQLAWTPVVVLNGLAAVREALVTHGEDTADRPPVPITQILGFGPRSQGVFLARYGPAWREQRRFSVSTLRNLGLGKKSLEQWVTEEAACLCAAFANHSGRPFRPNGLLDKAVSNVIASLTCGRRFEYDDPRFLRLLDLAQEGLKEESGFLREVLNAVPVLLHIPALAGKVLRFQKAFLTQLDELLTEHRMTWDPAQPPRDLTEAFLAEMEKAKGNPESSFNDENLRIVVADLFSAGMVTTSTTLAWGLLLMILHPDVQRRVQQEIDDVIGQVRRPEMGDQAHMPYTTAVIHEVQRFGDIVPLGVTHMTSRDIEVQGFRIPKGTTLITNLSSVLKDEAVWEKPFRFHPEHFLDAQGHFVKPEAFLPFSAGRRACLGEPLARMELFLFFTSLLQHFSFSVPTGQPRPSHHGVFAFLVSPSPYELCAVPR
experimental details: Inhibition of CYP2D6 (unknown origin)
value kind: EC50

| structure smiles | result |
| --- | --- |
| CC1(C)Cc2c(sc(NC(=O)c3ccn[nH]3)c2C(N)=O)C(C)(C)O1 | > 100 µM |

---

experimental details: AUC in rat at 5 mg/kg, po
Type: ADME, organism-based
condition label: in vivo

| structure smiles | unit spec | AUC |
| --- | --- | --- |
| CC1(C)Cc2c(sc(NC(=O)c3ccn[nH]3)c2C(N)=O)C(C)(C)O1 | ng·h/mL | 1540 |

---

System: Cystic fibrosis transmembrane conductance regulator (Homo sapiens), P13569 [F508del]
Sequence (P13569 as listed by the source): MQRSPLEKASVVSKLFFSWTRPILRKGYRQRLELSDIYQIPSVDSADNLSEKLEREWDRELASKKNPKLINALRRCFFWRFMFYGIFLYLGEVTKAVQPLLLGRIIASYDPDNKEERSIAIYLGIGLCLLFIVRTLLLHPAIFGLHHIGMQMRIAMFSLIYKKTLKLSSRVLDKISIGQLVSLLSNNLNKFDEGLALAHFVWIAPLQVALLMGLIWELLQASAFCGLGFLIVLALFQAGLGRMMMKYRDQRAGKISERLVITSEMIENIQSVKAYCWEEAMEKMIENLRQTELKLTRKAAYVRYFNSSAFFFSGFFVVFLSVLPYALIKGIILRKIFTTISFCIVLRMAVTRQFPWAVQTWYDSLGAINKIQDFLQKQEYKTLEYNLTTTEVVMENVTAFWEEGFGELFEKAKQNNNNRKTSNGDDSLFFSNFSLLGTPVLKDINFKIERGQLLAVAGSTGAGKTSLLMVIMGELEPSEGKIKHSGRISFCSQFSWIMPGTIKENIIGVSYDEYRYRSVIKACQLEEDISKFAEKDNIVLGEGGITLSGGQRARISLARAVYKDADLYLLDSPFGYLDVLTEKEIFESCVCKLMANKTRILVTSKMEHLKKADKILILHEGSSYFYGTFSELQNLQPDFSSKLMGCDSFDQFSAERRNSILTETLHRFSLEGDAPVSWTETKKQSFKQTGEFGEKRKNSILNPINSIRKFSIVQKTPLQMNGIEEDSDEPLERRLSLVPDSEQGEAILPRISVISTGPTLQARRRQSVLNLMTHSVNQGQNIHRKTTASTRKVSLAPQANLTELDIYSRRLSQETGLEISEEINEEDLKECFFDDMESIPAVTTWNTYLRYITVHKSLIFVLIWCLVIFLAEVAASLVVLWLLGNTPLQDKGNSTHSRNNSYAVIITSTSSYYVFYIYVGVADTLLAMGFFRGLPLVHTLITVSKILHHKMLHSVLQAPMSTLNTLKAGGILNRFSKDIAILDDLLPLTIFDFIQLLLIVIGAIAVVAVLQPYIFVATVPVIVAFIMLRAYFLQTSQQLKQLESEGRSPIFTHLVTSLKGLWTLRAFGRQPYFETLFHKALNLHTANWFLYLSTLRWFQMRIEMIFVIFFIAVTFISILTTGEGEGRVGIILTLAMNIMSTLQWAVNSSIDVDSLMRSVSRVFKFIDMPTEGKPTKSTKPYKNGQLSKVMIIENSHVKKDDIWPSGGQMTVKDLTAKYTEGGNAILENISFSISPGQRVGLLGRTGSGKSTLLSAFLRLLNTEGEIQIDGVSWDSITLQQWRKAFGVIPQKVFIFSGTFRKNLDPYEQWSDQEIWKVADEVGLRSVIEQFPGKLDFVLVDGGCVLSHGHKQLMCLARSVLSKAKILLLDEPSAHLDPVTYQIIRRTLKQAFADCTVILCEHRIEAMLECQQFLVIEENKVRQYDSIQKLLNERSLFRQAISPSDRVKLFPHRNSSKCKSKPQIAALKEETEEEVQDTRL
experimental details: Potentiation of CFTR F508del mutant (unknown origin) expressed in human CFBE41o cells incubated for 10 mins in presence of forskolin measured for 7 secs by YFP halide assay
Format: cell-based
Design: concentration or dose not given beside the values
Each record is given Satisfied if its reported Activity is strictly below 90%. Records at or above 90% are given Not satisfied.

| compound | classification |
| --- | --- |
| NC(=O)c1c(NC(=O)c2ccccc2Cl)sc2c1CCCC2 | Satisfied |
| Cc1ccc(C(=O)Nc2sc3c(c2C(N)=O)CCNC3)s1 | Satisfied |
| CC1(C)Cc2c(sc(NC(=O)[C@@H](O)C(C)(C)C)c2C(N)=O)C(C)(C)O1 | Not satisfied |
| CC(C)(C)CC(O)C(=O)Nc1sc2c(c1C(N)=O)CC(C)(C)OC2(C)C (stereo not drawn) | Not satisfied |
| Cc1ccc(C(=O)Nc2sc3c(c2C(N)=O)CCOC3)s1 | Satisfied |
| CC1(C)Cc2c(sc(NC(=O)c3ccccc3O)c2C(N)=O)C(C)(C)O1 | Not satisfied |
| CC(C)(C)c1cc(C(C)(C)C)c(NC(=O)c2c[nH]c3ccccc3c2=O)cc1O [IVACAFTOR] | Not satisfied |
| Cc1cc(C(=O)Nc2sc3c(c2C(N)=O)CC(C)(C)OC3(C)C)[nH]n1 | Satisfied |
| Cc1cn[nH]c1C(=O)Nc1sc2c(c1C(N)=O)CC(C)(C)OC2(C)C | Not satisfied |
| CC1(C)Cc2c(sc(NC(=O)c3ccccc3O)c2C(N)=O)CO1 | Not satisfied |
| CC1(C)Cc2c(sc(NC(=O)[C@H](O)C(C)(C)C)c2C(N)=O)C(C)(C)O1 | Not satisfied |
| CC1(C)Cc2c(sc(NC(=O)c3cc(C(F)(F)F)n[nH]3)c2C(N)=O)C(C)(C)O1 | Not satisfied |
| CC1(C)Cc2c(sc(NC(=O)c3ccn[nH]3)c2C(N)=O)C(C)(C)O1 | Not satisfied |
| CC1(C)Cc2c(sc(NC(=O)c3[nH]ncc3Cl)c2C(N)=O)C(C)(C)O1 | Not satisfied |
| Cc1ccc(C(=O)Nc2sc3c(c2C(N)=O)CCCC3)s1 | Satisfied |
| CC1Cc2c(sc(NC(=O)c3ccccc3O)c2C(N)=O)C(C)O1 (stereo not drawn) | Not satisfied |
| CC1(C)Cc2c(sc(NC(=O)C3(CO)CC3)c2C(N)=O)C(C)(C)O1 | Not satisfied |

---

experimental details: Cmax in rat at 300 mg/kg, po
Type: ADME, organism-based
Set-up: dose 300 mg/kg, route oral
condition label: in vivo

| structure smiles | Cmax [ng/mL] |
| --- | --- |
| CC1(C)Cc2c(sc(NC(=O)c3ccn[nH]3)c2C(N)=O)C(C)(C)O1 | 4670 |

---

experimental details: Half life in dog at 1 mg/kg, iv
Format: ADME, organism-based, Canis lupus familiaris
condition label: in vivo

| structure smiles | half-life / h |
| --- | --- |
| CC1(C)Cc2c(sc(NC(=O)c3ccn[nH]3)c2C(N)=O)C(C)(C)O1 | 3 |

---

system name: Cystic fibrosis transmembrane conductance regulator (Homo sapiens, UniProt P13569, G551D)
Sequence (P13569 whole entry G551D): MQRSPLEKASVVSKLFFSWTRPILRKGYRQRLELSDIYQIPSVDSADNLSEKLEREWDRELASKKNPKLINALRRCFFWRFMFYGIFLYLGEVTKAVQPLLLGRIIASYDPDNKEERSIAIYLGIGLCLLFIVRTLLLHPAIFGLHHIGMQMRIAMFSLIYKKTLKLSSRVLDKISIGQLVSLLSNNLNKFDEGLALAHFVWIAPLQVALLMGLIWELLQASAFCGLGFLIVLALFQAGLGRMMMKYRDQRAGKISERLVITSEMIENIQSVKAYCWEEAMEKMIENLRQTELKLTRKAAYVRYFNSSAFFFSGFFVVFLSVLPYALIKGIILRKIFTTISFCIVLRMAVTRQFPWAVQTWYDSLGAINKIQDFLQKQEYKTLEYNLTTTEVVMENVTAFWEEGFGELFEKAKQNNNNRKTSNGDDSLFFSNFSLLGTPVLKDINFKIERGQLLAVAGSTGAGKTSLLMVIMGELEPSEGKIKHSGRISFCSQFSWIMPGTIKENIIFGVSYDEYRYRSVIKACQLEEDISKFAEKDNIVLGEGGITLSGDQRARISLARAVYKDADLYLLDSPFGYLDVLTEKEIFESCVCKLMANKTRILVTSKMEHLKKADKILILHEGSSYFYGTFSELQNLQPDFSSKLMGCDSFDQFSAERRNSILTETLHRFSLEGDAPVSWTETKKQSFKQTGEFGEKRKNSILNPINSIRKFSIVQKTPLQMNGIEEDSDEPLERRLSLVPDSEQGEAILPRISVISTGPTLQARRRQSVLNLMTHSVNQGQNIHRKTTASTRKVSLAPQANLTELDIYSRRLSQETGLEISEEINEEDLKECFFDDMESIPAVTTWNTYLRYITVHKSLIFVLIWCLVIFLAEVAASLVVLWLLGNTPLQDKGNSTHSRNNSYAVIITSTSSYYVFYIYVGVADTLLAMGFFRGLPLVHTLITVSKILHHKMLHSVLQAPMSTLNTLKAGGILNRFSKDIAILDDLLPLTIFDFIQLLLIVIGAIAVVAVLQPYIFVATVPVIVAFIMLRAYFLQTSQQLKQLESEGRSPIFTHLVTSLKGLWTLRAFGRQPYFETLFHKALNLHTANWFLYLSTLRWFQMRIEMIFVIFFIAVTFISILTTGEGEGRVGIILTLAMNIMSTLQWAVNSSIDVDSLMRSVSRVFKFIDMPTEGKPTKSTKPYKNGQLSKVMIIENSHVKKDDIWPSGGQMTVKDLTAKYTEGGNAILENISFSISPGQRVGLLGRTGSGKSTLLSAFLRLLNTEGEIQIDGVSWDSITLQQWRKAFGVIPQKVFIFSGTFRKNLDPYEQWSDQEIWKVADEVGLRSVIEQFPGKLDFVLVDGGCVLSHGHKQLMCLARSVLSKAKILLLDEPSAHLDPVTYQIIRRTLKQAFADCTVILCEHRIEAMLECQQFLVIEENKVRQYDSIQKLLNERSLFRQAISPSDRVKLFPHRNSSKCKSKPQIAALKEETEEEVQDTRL
experimental details: Potentiation of CFTR G551D mutant (unknown origin) expressed in HEK293 cells incubated for 10 mins in presence of forskolin measured for 2 mins by YFP halide assay
Format: cell-based
Known EC50 of a selection of compounds
value kind: EC50 (nM)

| compound | result number |
| --- | --- |
| CC1(C)Cc2c(sc(NC(=O)C3(CO)CC3)c2C(N)=O)C(C)(C)O1 | 1320 |
| Cc1cn[nH]c1C(=O)Nc1sc2c(c1C(N)=O)CC(C)(C)OC2(C)C | 123 |
| CC1Cc2c(sc(NC(=O)c3ccccc3O)c2C(N)=O)C(C)O1 (stereo not given) | 236 |
| Cc1[nH]nc(C(=O)Nc2sc3c(c2C(N)=O)CC(C)(C)OC3(C)C)c1Cl | 199 |
| CC1(C)Cc2c(sc(NC(=O)c3ccccc3O)c2C(N)=O)CO1 | 490 |

---

experimental details: Thermodynamic solubility of the compound at pH 7.4
Type: physicochemical
condition label: buffer, read-out: Therm_solubility

| structure smiles | solubility thermodynamic / µM |
| --- | --- |
| CC1(C)Cc2c(sc(NC(=O)c3ccn[nH]3)c2C(N)=O)C(C)(C)O1 | 8.6 |

---

system name: Cytochrome P450 3A4 (Homo sapiens, UniProt P08684)
experimental details: Inhibition of CYP3A4 (unknown origin)

| structure smiles | system name | EC50 |
| --- | --- | --- |
| CC1(C)Cc2c(sc(NC(=O)c3ccn[nH]3)c2C(N)=O)C(C)(C)O1 | Cytochrome P450 3A4 (Homo sapiens, UniProt P08684) | > 100 µM |

---

experimental details: Cmax in rat at 5 mg/kg, po
Type: ADME, organism-based
Design: dose 5 mg/kg, route oral
condition label: in vivo

| structure smiles | Cmax / ng/mL |
| --- | --- |
| CC1(C)Cc2c(sc(NC(=O)c3ccn[nH]3)c2C(N)=O)C(C)(C)O1 | 331 |

---

experimental details: Volume of distribution in dog at 1 mg/kg, iv
Type: ADME, organism-based, Canis lupus familiaris
condition label: in vivo

| structure smiles | Vd [L/kg] |
| --- | --- |
| CC1(C)Cc2c(sc(NC(=O)c3ccn[nH]3)c2C(N)=O)C(C)(C)O1 | 1.4 |

---

Test system: Cystic fibrosis transmembrane conductance regulator (Homo sapiens), P13569 [G551D]
Sequence (P13569 whole entry G551D): as the sequence (P13569 whole entry G551D) above
experimental details: Potentiation of CFTR G551D mutant (unknown origin) expressed in HEK293 cells incubated for 10 mins in presence of forskolin measured for 2 mins by YFP halide assay
Assay type: cell-based
Design: concentration or dose not given beside the values
Response field label takes True when Activity is strictly below 50% and False in all other cases.

| compound | system name | classification |
| --- | --- | --- |
| NC(=O)c1c(NC(=O)c2ccccc2Cl)sc2c1CCCC2 | Cystic fibrosis transmembrane conductance regulator (Homo sapiens), P13569 [G551D] | True |
| CC1Cc2c(sc(NC(=O)c3ccccc3O)c2C(N)=O)C(C)O1 (stereo not given) | Cystic fibrosis transmembrane conductance regulator (Homo sapiens), P13569 [G551D] | True |
| Cc1cn[nH]c1C(=O)Nc1sc2c(c1C(N)=O)CC(C)(C)OC2(C)C | Cystic fibrosis transmembrane conductance regulator (Homo sapiens), P13569 [G551D] | False |
| CC1(C)Cc2c(sc(NC(=O)c3[nH]ncc3Cl)c2C(N)=O)C(C)(C)O1 | Cystic fibrosis transmembrane conductance regulator (Homo sapiens), P13569 [G551D] | False |
| Cc1n[nH]c(C(=O)Nc2sc3c(c2C(N)=O)CC(C)(C)OC3(C)C)c1Cl | Cystic fibrosis transmembrane conductance regulator (Homo sapiens), P13569 [G551D] | False |
| CC1(C)Cc2c(sc(NC(=O)C3(CO)CC3)c2C(N)=O)C(C)(C)O1 | Cystic fibrosis transmembrane conductance regulator (Homo sapiens), P13569 [G551D] | False |
